- System: CAKI-1
- Test summary: NCI tumour cell line growth inhibition, 48 h
Active and inactive are the calls of the source. No stated cut-off is given here; in the data, active = GI50 up to about 1.1 µM and inactive = higher. Where a SMILES comes first, the peptide text is derived from it.
Assay metric: GI50

The reported value for CCC(C)C1NC(=O)C2CCCN2C(=O)CNC(=O)C(C)NC(=O)C(Cc2ccccc2)NC(=O)C(C(C)C)NC1=O (centres undefined) (cyclo(GPIVFA); configuration not given here) in terms of GI50 is > 100 µM (inactive)

The reported value for O=C(NCCCl)Nc1ccccc1 in terms of GI50 is > 100 µM (inactive)

The reported value for C=C(C)[C@@H]1CC[C@]2(C)CC[C@]3(C)[C@H](CC[C@@H]4[C@@]5(C)CC[C@H](O)C(C)(C)[C@@H]5CC[C@]43C)[C@@H]12 in terms of GI50 is > 81.1 µM (inactive)

The reported value for O=C1c2ccccc2-c2c1c1ccccc1c(=O)n2-c1cccnc1 in terms of GI50 is 35.3 µM (inactive)

----------
- Tested on: NCI-H460
- Test summary: NCI tumour cell line growth inhibition, 48 h
Active and inactive are the calls of the source. Rule as the data show it: active = GI50 up to about 1.1 µM and inactive = higher.
Assay metric: GI50

The reported value for CC(C)(C)OC(=O)NCCC1SC2C=CC1C2 (stereo not drawn) in terms of GI50 is > 100 µM (inactive)

The reported value for Cc1ccc(C2(c3ccc(C)c(O)c3C)CCN(C)CC2)c(C)c1O in terms of GI50 is 15.7 µM (inactive)

The reported value for Cc1ccc(Cl)c2c(=O)cc(-c3ccccc3)[nH]c12 in terms of GI50 is 36.2 µM (inactive)

The reported value for Cc1cc(Cl)ccc1NC(=O)C1C(=O)N(c2ccc(Cl)cc2C)C(=O)/C1=N\NC(N)=S (stereo not drawn) in terms of GI50 is 31.6 µM (inactive)

The reported value for CC[C@]12C=CCN3CC[C@@]4(c5cc(Br)c(OC)c([N+](=O)[O-])c5N(C)[C@H]4[C@@](O)(C(=O)OC)[C@@H]1OC(C)=O)[C@@H]32 in terms of GI50 is 40.8 µM (inactive)

The reported value for CCCCCCCCCCCCCCCC(=O)Nc1ccn(C2OC(CO)C(O)C2O)c(=O)n1 (stereo not drawn) in terms of GI50 is 0.78 µM (active)

The reported value for COc1cc(/C=C2\CCC/C(=C\c3cc(OC)c(O)c(OC)c3)C2=O)cc(OC)c1O in terms of GI50 is 2.22 µM (inactive)

The reported value for C=C(C)[C@@H]1CC[C@]2(C)CC[C@]3(C)[C@H](CC[C@@H]4[C@@]5(C)CC[C@H](O)C(C)(C)[C@@H]5CC[C@]43C)[C@@H]12 [LUPEOL] in terms of GI50 is 45.7 µM (inactive)

----------
- System: EKVX
- Test summary: NCI tumour cell line growth inhibition, 48 h
Calls of active or inactive are those of the source. No stated cut-off is given here; in the data, active = GI50 up to about 1.1 µM and inactive = higher.
Choose the fitting class; nothing outside true for active, false for inactive is accepted.

[Q] GET /call?item= Cc1cc(S(=O)(=O)Nc2n[nH]c(Nc3ccccc3)n2)c(S)cc1Cl returns the recorded outcome of this test.
[A] false

[Q] GET /call?item= CN(C)CCCNc1c(C#N)[n+]([O-])c2cc(Cl)ccc2[n+]1[O-] returns the recorded outcome of this test.
[A] false

[Q] GET /call?item= CC(C)(C)Nc1noc(=O)n1C(C)(C)C returns the recorded outcome of this test.
[A] false

[Q] GET /call?item= COc1nc2c(c(O)c(C)c(=O)n2OC2OC(COC(C)=O)C(OC(C)=O)C(OC(C)=O)C2OC(C)=O)c(=O)n1C (stereo not drawn) returns the recorded outcome of this test.
[A] false

[Q] GET /call?item= COc1cc(CNc2nc3cc(C(F)(F)F)ccc3nc2C)cc(OC)c1OC returns the recorded outcome of this test.
[A] false

[Q] GET /call?item= O=c1[nH]nc(-c2ccccc2)n1/N=C/c1ccncc1 returns the recorded outcome of this test.
[A] false

[Q] GET /call?item= C=CC(Br)(CBr)CCC1OC1(C)C (stereo not drawn) returns the recorded outcome of this test.
[A] false

[Q] GET /call?item= CC(O)c1ccc[n+](Cc2ccccc2)c1 (stereo not drawn) returns the recorded outcome of this test.
[A] false

[Q] GET /call?item= CCNC(=S)N/N=C(/C)c1cccc(/C(C)=N\NC(=S)NCC)n1 returns the recorded outcome of this test.
[A] true

[Q] GET /call?item= COc1cccc(OC)c1NC(=O)C(=O)Nn1c(NNC(=O)c2ccncc2)nc2ccccc2c1=O returns the recorded outcome of this test.
[A] false

[Q] GET /call?item= CN(C)CCCNc1c2c(=O)n(C)c(=O)nc-2n(C)c2ccccc12 returns the recorded outcome of this test.
[A] false

[Q] GET /call?item= OCC(O)COCn1cc(Cn2ncc3c(NCc4ccccc4)ncnc32)nn1 (stereo not drawn) returns the recorded outcome of this test.
[A] false

[Q] GET /call?item= FC(F)(F)c1ccc(Cc2nc3cc4ccccc4cc3[nH]2)cc1 returns the recorded outcome of this test.
[A] false

[Q] GET /call?item= Cn1c(=O)nc2n(CCO)ccnc-2c1=O returns the recorded outcome of this test.
[A] false

[Q] GET /call?item= C[C@H](O)C(=O)SC[C@H](NC(=O)CC[C@@H](N)C(=O)O)C(=O)NCC(=O)O returns the recorded outcome of this test.
[A] false

[Q] GET /call?item= COC(=O)c1cc2cc(OC)c(OC)cc2cc(C(=O)OC)c1=O returns the recorded outcome of this test.
[A] false

[Q] GET /call?item= CC(Cc1ccc(O)cc1)NCC(O)c1ccc(O)c(O)c1 (stereo not drawn) returns the recorded outcome of this test.
[A] false

[Q] GET /call?item= O=C(O)/C(Cl)=C(Cl)/C=N/NC(=O)c1cc2ccccc2cc1O returns the recorded outcome of this test.
[A] false

[Q] GET /call?item= c1ccc(C2=NCCc3cc4c(cc32)OCO4)cc1 returns the recorded outcome of this test.
[A] false

[Q] GET /call?item= CCOC(=O)c1[nH]c(Br)c(-c2ccc(OC)c(OC)c2)c1Br returns the recorded outcome of this test.
[A] false

[Q] GET /call?item= CNC(SC)=C1C(=O)OC(C)(C)OC1=O returns the recorded outcome of this test.
[A] false

[Q] GET /call?item= C=CCOc1cc(NC(=S)c2ccoc2C)ccc1OC returns the recorded outcome of this test.
[A] false

[Q] GET /call?item= COc1cc2c(cc1O)C1Cc3ccc(OC)c(O)c3C[N+]1(C)CC2 (stereo not drawn) returns the recorded outcome of this test.
[A] false
